target-or-system: Nociceptin receptor (Mus musculus, UniProt P35377)
Sequence (P35377 whole entry): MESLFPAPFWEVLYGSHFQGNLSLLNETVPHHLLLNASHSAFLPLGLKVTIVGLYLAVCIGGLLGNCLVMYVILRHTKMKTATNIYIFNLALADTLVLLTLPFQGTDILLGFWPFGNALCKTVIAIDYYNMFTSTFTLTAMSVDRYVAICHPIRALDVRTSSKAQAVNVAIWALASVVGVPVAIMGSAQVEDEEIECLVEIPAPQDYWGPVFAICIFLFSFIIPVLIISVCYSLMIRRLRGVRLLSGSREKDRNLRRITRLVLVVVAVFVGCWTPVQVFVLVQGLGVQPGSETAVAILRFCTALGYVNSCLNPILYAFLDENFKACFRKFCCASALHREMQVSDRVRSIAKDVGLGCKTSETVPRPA
method-notes: Agonist activity at NOP receptor in Swiss mouse vas deferens assessed as effect on electrically stimulated contractions
Assay type: functional, tissue-based
measurement-kind: pEC50
As a rule, pEC50 stands for the negative log10 of the concentration, concentration in M.

[Q] Request the reported pEC50 associated with "CC(C)C[C@H](NC(=O)[C@H](CCCCN)NC(=O)[C@H](CCCNC(=N)N)NC(=O)[C@H](C)NC(=O)[C@H](CO)NC(=O)[C@H](CCCCN)NC(=O)[C@H](CCCNC(=N)N)NC(=O)C1(NC(=O)CNC(=O)[C@@H](NC(=O)[C@H](Cc2ccccc2)NC(=O)CNC(=O)CNC(=O)[C@@H](N)Cc2ccccc2)[C@@H](C)O)CCCC1)C(=O)N[C@@H](C)C(=O)N[C@@H](CC(N)=O)C(=O)N[C@@H](CCC(N)=O)C(N)=O"
[A] 7.60

[Q] // query: "CC(C)C[C@H](NC(=O)[C@H](CCCCN)NC(=O)[C@H](CCCNC(=N)N)NC(=O)C1(NC(=O)[C@H](CO)NC(=O)[C@H](CCCCN)NC(=O)[C@H](CCCNC(=N)N)NC(=O)[C@H](C)NC(=O)CNC(=O)[C@@H](NC(=O)[C@H](Cc2ccccc2)NC(=O)CNC(=O)CNC(=O)[C@@H](N)Cc2ccccc2)[C@@H](C)O)CC1)C(=O)N[C@@H](C)C(=O)N[C@@H](CC(N)=O)C(=O)N[C@@H](CCC(N)=O)C(N)=O"
[A] 7.78

[Q] // query: "CC(C)C[C@H](NC(=O)[C@H](CCCCN)NC(=O)[C@H](CCCNC(=N)N)NC(=O)[C@H](C)NC(=O)[C@H](CO)NC(=O)[C@H](CCCCN)NC(=O)[C@H](CCCNC(=N)N)NC(=O)C(C)(C)NC(=O)CNC(=O)[C@@H](NC(=O)[C@H](Cc1ccccc1)NC(=O)CNC(=O)CNC(=O)[C@@H](N)Cc1ccccc1)[C@@H](C)O)C(=O)N[C@@H](C)C(=O)N[C@@H](CC(N)=O)C(=O)N[C@@H](CCC(N)=O)C(N)=O"
[A] 8.35

* * *

target-or-system: Nociceptin receptor (Mus musculus)
method-notes: Agonist activity at NOP receptor in Swiss mouse vas deferens assessed as effect on electrically stimulated contractions
Assay type: functional, tissue-based
measurement-kind: Emax (%)
Report the figure in % without appending any unit label.

[Q] Request the reported Emax associated with "CC(C)C[C@H](NC(=O)[C@H](CCCCN)NC(=O)[C@H](CCCNC(=N)N)NC(=O)[C@H](C)NC(=O)[C@H](CO)NC(=O)[C@H](CCCCN)NC(=O)[C@H](CCCNC(=N)N)NC(=O)C1(NC(=O)CNC(=O)[C@@H](NC(=O)[C@H](Cc2ccccc2)NC(=O)CNC(=O)CNC(=O)[C@@H](N)Cc2ccccc2)[C@@H](C)O)CC1)C(=O)N[C@@H](C)C(=O)N[C@@H](CC(N)=O)C(=O)N[C@@H](CCC(N)=O)C(N)=O"
[A] 7.08

[Q] // query: "CC(C)C[C@H](NC(=O)[C@H](CCCCN)NC(=O)[C@H](CCCNC(=N)N)NC(=O)[C@H](C)NC(=O)[C@H](CO)NC(=O)[C@H](CCCCN)NC(=O)[C@H](CCCNC(=N)N)NC(=O)C(C)(C)NC(=O)CNC(=O)[C@@H](NC(=O)[C@H](Cc1ccccc1)NC(=O)CNC(=O)CNC(=O)[C@@H](N)Cc1ccccc1)[C@@H](C)O)C(=O)N[C@@H](C)C(=O)N[C@@H](CC(N)=O)C(=O)N[C@@H](CCC(N)=O)C(N)=O"
[A] 96

[Q] // query: "CC(C)C[C@H](NC(=O)[C@H](CCCCN)NC(=O)[C@H](CCCNC(=N)N)NC(=O)C1(NC(=O)[C@H](CO)NC(=O)[C@H](CCCCN)NC(=O)[C@H](CCCNC(=N)N)NC(=O)[C@H](C)NC(=O)CNC(=O)[C@@H](NC(=O)[C@H](Cc2ccccc2)NC(=O)CNC(=O)CNC(=O)[C@@H](N)Cc2ccccc2)[C@@H](C)O)CC1)C(=O)N[C@@H](C)C(=O)N[C@@H](CC(N)=O)C(=O)N[C@@H](CCC(N)=O)C(N)=O"
[A] 91

* * *

target-or-system: Nociceptin receptor (Mus musculus)
method-notes: Agonist activity at NOP receptor in Swiss mouse vas deferens assessed as effect on electrically stimulated contractions
Type: functional, tissue-based
measurement-kind: Emax (%)
Report the figure in % without appending any unit label.

[Q] Request the reported Emax associated with "CC(C)C[C@H](NC(=O)[C@H](CCCCN)NC(=O)[C@H](CCCNC(=N)N)NC(=O)[C@H](C)NC(=O)[C@H](CO)NC(=O)[C@H](CCCCN)NC(=O)[C@H](CCCNC(=N)N)NC(=O)C1(NC(=O)CNC(=O)[C@@H](NC(=O)[C@H](Cc2ccccc2)NC(=O)CNC(=O)CNC(=O)[C@@H](N)Cc2ccccc2)[C@@H](C)O)CCCC1)C(=O)N[C@@H](C)C(=O)N[C@@H](CC(N)=O)C(=O)N[C@@H](CCC(N)=O)C(N)=O"
[A] 98

[Q] // query: CC(C)C[C@H](NC(=O)[C@H](CCCCN)NC(=O)[C@H](CCCNC(=N)N)NC(=O)C(C)(CC(C)C)NC(=O)[C@H](CO)NC(=O)[C@H](CCCCN)NC(=O)[C@H](CCCNC(=N)N)NC(=O)[C@H](C)NC(=O)CNC(=O)[C@@H](NC(=O)[C@H](Cc1ccccc1)NC(=O)CNC(=O)CNC(=O)[C@@H](N)Cc1ccccc1)[C@@H](C)O)C(=O)N[C@@H](C)C(=O)N[C@@H](CC(N)=O)C(=O)N[C@@H](CCC(N)=O)C(N)=O (stereo partly drawn)
[A] 91

[Q] // query: "CC(C)C[C@H](NC(=O)[C@H](CCCCN)NC(=O)[C@H](CCCNC(=N)N)NC(=O)C(C)(C)NC(=O)[C@H](CO)NC(=O)[C@H](CCCCN)NC(=O)[C@H](CCCNC(=N)N)NC(=O)[C@H](C)NC(=O)CNC(=O)[C@@H](NC(=O)[C@H](Cc1ccccc1)NC(=O)CNC(=O)CNC(=O)[C@@H](N)Cc1ccccc1)[C@@H](C)O)C(=O)N[C@@H](C)C(=O)N[C@@H](CC(N)=O)C(=O)N[C@@H](CCC(N)=O)C(N)=O"
[A] 91

* * *

Please go through the items and note down their Emax.
target-or-system: Nociceptin receptor (Mus musculus) (UniProt P35377)
method-notes: Agonist activity at NOP receptor in Swiss mouse vas deferens assessed as effect on electrically stimulated contractions
Assay type: functional, tissue-based
Report the figure in % without appending any unit label.

[Q] Request the reported Emax associated with "CC(C)C[C@H](NC(=O)[C@H](CCCCN)NC(=O)[C@H](CCCNC(=N)N)NC(=O)C1(NC(=O)[C@H](CO)NC(=O)[C@H](CCCCN)NC(=O)[C@H](CCCNC(=N)N)NC(=O)[C@H](C)NC(=O)CNC(=O)[C@@H](NC(=O)[C@H](Cc2ccccc2)NC(=O)CNC(=O)CNC(=O)[C@@H](N)Cc2ccccc2)[C@@H](C)O)CCCC1)C(=O)N[C@@H](C)C(=O)N[C@@H](CC(N)=O)C(=O)N[C@@H](CCC(N)=O)C(N)=O"
[A] 89

[Q] // query: "CC(C)C[C@H](NC(=O)[C@H](CCCCN)NC(=O)[C@H](CCCNC(=N)N)NC(=O)[C@H](C)NC(=O)[C@H](CO)NC(=O)[C@H](CCCCN)NC(=O)[C@H](CCCNC(=N)N)NC(=O)C1(NC(=O)CNC(=O)[C@@H](NC(=O)[C@H](Cc2ccccc2)NC(=O)CNC(=O)CNC(=O)[C@@H](N)Cc2ccccc2)[C@@H](C)O)CCCCC1)C(=O)N[C@@H](C)C(=O)N[C@@H](CC(N)=O)C(=O)N[C@@H](CCC(N)=O)C(N)=O"
[A] 87

[Q] // query: CCC(C)(NC(=O)[C@H](CO)NC(=O)[C@H](CCCCN)NC(=O)[C@H](CCCNC(=N)N)NC(=O)[C@H](C)NC(=O)CNC(=O)[C@@H](NC(=O)[C@H](Cc1ccccc1)NC(=O)CNC(=O)CNC(=O)[C@@H](N)Cc1ccccc1)[C@@H](C)O)C(=O)N[C@@H](CCCNC(=N)N)C(=O)N[C@@H](CCCCN)C(=O)N[C@@H](CC(C)C)C(=O)N[C@@H](C)C(=O)N[C@@H](CC(N)=O)C(=O)N[C@@H](CCC(N)=O)C(N)=O (stereo partly drawn)
[A] 90

[Q] // query: "CCC(CC)(NC(=O)[C@H](CO)NC(=O)[C@H](CCCCN)NC(=O)[C@H](CCCNC(=N)N)NC(=O)[C@H](C)NC(=O)CNC(=O)[C@@H](NC(=O)[C@H](Cc1ccccc1)NC(=O)CNC(=O)CNC(=O)[C@@H](N)Cc1ccccc1)[C@@H](C)O)C(=O)N[C@@H](CCCNC(=N)N)C(=O)N[C@@H](CCCCN)C(=O)N[C@@H](CC(C)C)C(=O)N[C@@H](C)C(=O)N[C@@H](CC(N)=O)C(=O)N[C@@H](CCC(N)=O)C(N)=O"
[A] 87

[Q] // query: "CCC(CC)(NC(=O)CNC(=O)[C@@H](NC(=O)[C@H](Cc1ccccc1)NC(=O)CNC(=O)CNC(=O)[C@@H](N)Cc1ccccc1)[C@@H](C)O)C(=O)N[C@@H](CCCNC(=N)N)C(=O)N[C@@H](CCCCN)C(=O)N[C@@H](CO)C(=O)N[C@@H](C)C(=O)N[C@@H](CCCNC(=N)N)C(=O)N[C@@H](CCCCN)C(=O)N[C@@H](CC(C)C)C(=O)N[C@@H](C)C(=O)N[C@@H](CC(N)=O)C(=O)N[C@@H](CCC(N)=O)C(N)=O"
[A] 89

[Q] // query: "CCCC(CCC)(NC(=O)[C@H](CO)NC(=O)[C@H](CCCCN)NC(=O)[C@H](CCCNC(=N)N)NC(=O)[C@H](C)NC(=O)CNC(=O)[C@@H](NC(=O)[C@H](Cc1ccccc1)NC(=O)CNC(=O)CNC(=O)[C@@H](N)Cc1ccccc1)[C@@H](C)O)C(=O)N[C@@H](CCCNC(=N)N)C(=O)N[C@@H](CCCCN)C(=O)N[C@@H](CC(C)C)C(=O)N[C@@H](C)C(=O)N[C@@H](CC(N)=O)C(=O)N[C@@H](CCC(N)=O)C(N)=O"
[A] 86

[Q] // query: "CC(C)C[C@H](NC(=O)[C@H](CCCCN)NC(=O)[C@H](CCCNC(=N)N)NC(=O)C1(NC(=O)[C@H](CO)NC(=O)[C@H](CCCCN)NC(=O)[C@H](CCCNC(=N)N)NC(=O)[C@H](C)NC(=O)CNC(=O)[C@@H](NC(=O)[C@H](Cc2ccccc2)NC(=O)CNC(=O)CNC(=O)[C@@H](N)Cc2ccccc2)[C@@H](C)O)CCCCC1)C(=O)N[C@@H](C)C(=O)N[C@@H](CC(N)=O)C(=O)N[C@@H](CCC(N)=O)C(N)=O"
[A] 89

[Q] // query: "CCCC(CCC)(NC(=O)CNC(=O)[C@@H](NC(=O)[C@H](Cc1ccccc1)NC(=O)CNC(=O)CNC(=O)[C@@H](N)Cc1ccccc1)[C@@H](C)O)C(=O)N[C@@H](CCCNC(=N)N)C(=O)N[C@@H](CCCCN)C(=O)N[C@@H](CO)C(=O)N[C@@H](C)C(=O)N[C@@H](CCCNC(=N)N)C(=O)N[C@@H](CCCCN)C(=O)N[C@@H](CC(C)C)C(=O)N[C@@H](C)C(=O)N[C@@H](CC(N)=O)C(=O)N[C@@H](CCC(N)=O)C(N)=O"
[A] 91

Numbers sourced from ChEMBL document CHEMBL1148695.
